Every entry's value here was drawn from ChEMBL document CHEMBL1201862.

Tested on: IGROV-1
experiment_notes: NCI tumour cell line growth inhibition, 48 h
The source made the active and inactive calls. Rule as the data show it: active = GI50 up to about 1.1 µM and inactive = higher.
Outcome codes: label 1 (active), label 0 (inactive)

# compound, target_or_test_system, discrete_label
records = [
    ("CCOC(=O)c1c(CN2CCCC2)n(-c2ccccc2)c2cc(Br)c(OC)cc12", "IGROV-1", "label 0"),
    ("CC1=NN(c2nc(N)nc(CO)n2)C(C)(C)C1", "IGROV-1", "label 0"),
    ("OCc1cccc(Nc2nc(O)c3[nH]cnc3n2)c1", "IGROV-1", "label 0"),
    ("CCOC(=O)/C(=N\\Nc1ccc(-n2c(C)nc3ccccc3c2=O)cc1)C(C)=O", "IGROV-1", "label 0"),
    ("CS(=O)(=O)CS(=O)(=O)OCCCl", "IGROV-1", "label 0"),
    ("Cn1c(N=P(c2ccccc2)(c2ccccc2)c2ccccc2)c([N+](=O)[O-])c(=O)n(C)c1=O", "IGROV-1", "label 0"),
    ("COC(=O)c1cc(C#N)[nH]c1-c1ccc(Br)s1", "IGROV-1", "label 0"),
    ("COc1ccc2c(c1)N(CCC1CCCCN1C)c1ccccc1S2 (stereo not given)", "IGROV-1", "label 0"),
    ("C=C1C(=O)O[C@@H]2[C@H](O)[C@@H](C)[C@@H]3C=CC(=O)[C@@]3(C)[C@@H](OC(=O)/C(C)=C/C)[C@H]12", "IGROV-1", "label 1"),
    ("O=c1c2ccccc2nc2n1CCc1c-2[nH]c2cc3c(cc12)OCO3", "IGROV-1", "label 0"),
    ("CCc1nc(N)nc(N)c1-c1ccc(NCCc2ccccc2)c([N+](=O)[O-])c1", "IGROV-1", "label 1"),
    ("O=C1/C(=C2\\Sc3c(ccc(Cl)c3Cl)C2=O)Sc2c1ccc(Cl)c2Cl", "IGROV-1", "label 0"),
    ("N#Cc1nc(C2OC(COC(=O)c3ccccc3)C(OC(=O)c3ccccc3)C2OC(=O)c2ccccc2)oc1N (stereo not given)", "IGROV-1", "label 0"),
    ("Cc1cc(OCc2nnc3n2S(=O)(=O)c2ccccc2N3C)ccc1Cl", "IGROV-1", "label 0"),
    ("Brc1ccc(-c2[nH]c3ccccc3c2/N=N\\c2ccccc2)cc1", "IGROV-1", "label 0"),
    ("COC(=O)C(=O)C(CC(=O)Nc1c(C)cccc1C)C(=O)OC (stereo not given)", "IGROV-1", "label 0"),
    ("CC(C)(C)OC(=O)NC(Cc1ccc(OC(C)(C)C)cc1)C(=O)N[C@H]1CCC[C@H]1C(=O)NC(Cc1ccccc1)C(=O)N1CCCC1C(N)=O (stereo not given in full)", "IGROV-1", "label 0"),
    ("Brc1ccccc1/C=N\\C12CC3CC(CC(C3)C1)C2", "IGROV-1", "label 0"),
    ("CCOC(=O)C12CCCC1(O)N(NC(=O)OC(C)(C)C)C(C)=C2C(=O)OC (stereo not given)", "IGROV-1", "label 0"),
    ("CO[C@H]1SC[C@H](OC(C)=O)[C@H](OC(C)=O)[C@H]1OC(C)=O", "IGROV-1", "label 0"),
    ("COC(=O)C1=C(O)c2cc(-c3ccccc3)c(-c3ccccc3)c(C#N)c2NC(=O)C1", "IGROV-1", "label 1"),
    ("COc1cc(C=C2C(C)=NN(c3cccc(Cl)c3)C23SCC(=O)N3c2nc3ccccc3s2)ccc1O (stereo not given)", "IGROV-1", "label 0"),
    ("COc1cc(C(=O)/C=C/c2ccc(OCC#N)cc2)cc(OC)c1OC", "IGROV-1", "label 0"),
    ("Cc1occ2c1C(=O)CC1C2[C@@H](O)CC2C(C)(C)CCC[C@]12C (stereo not given in full)", "IGROV-1", "label 0"),
    ("Cc1ccc(O)c(C(c2ccc(C(c3cc(C)ccc3O)c3cc(C)ccc3O)cc2)c2cc(C)ccc2O)c1", "IGROV-1", "label 0"),
    ("O=c1c2ccccc2[nH]c(=S)n1-c1ccc(Br)cc1", "IGROV-1", "label 0"),
    ("CS(=O)(=O)Oc1cccc(/C=N/N=C(\\N)NO)c1", "IGROV-1", "label 0"),
    ("CC(C)(C)OC(=O)C1=C(N)N(Cc2ccccc2)C2(C)C=CC(=O)C=C12 (stereo not given)", "IGROV-1", "label 0"),
    ("COC1C=COC2(C)Oc3c(C)c(O)c4c(O)c(c(C5SCCS5)c(O)c4c3C2=O)NC(=O)/C(C)=C\\C=CC(C)C(O)C(C)C(O)C(C)C(OC(C)=O)C1C (stereo not given)", "IGROV-1", "label 0"),
    ("c1ccc2c(Cc3[nH]c4ccccc4c3Cc3c[nH]c4ccccc34)c[nH]c2c1", "IGROV-1", "label 0"),
]
